The measurements presented in this section are drawn from ChEMBL document CHEMBL3576833.

Molecular target: UniProtKB P35557
Assay: Activation of recombinant human pancreatic glucokinase using 10 mM glucose as substrate by G6PDH coupled assay
measured_attribute: EC50 (nM)

COCC#Cc1cc(O[C@@H](C)COC)cc(C(=O)Nc2ccn(C)n2)c1	1870
COC[C@H](C)Oc1cc(C#Cc2cccc(OCCN3CCCCC3)c2)cc(C(=O)Nc2ccn(C)n2)c1	7
COC[C@H](C)Oc1cc(C#Cc2cccc(OCCN3CCOCC3)c2)cc(C(=O)Nc2ccn(C)n2)c1	16

I: COC[C@H](C)Oc1cc(C#Cc2cccc(NCCN3CCOCC3)c2)cc(C(=O)Nc2ccn(C)n2)c1
II: COC[C@H](C)Oc1cc(C#Cc2cccc(OC(C)C)c2)cc(C(=O)Nc2ccn(C)n2)c1
III: COC[C@H](C)Oc1cc(C#Cc2ccc3c(c2)OCO3)cc(C(=O)Nc2ccn(C)n2)c1
IV: COC[C@H](C)Oc1cc(C#Cc2cccc(NCCn3ccnc3C)c2)cc(C(=O)Nc2ccn(C)n2)c1
V: COC[C@H](C)Oc1cc(C#Cc2cccc(NCCN(C)C)c2)cc(C(=O)Nc2ccn(C)n2)c1
Problem: Sort the molecules on EC50; start with the lowest figure. Order the labels as requested and list them.
Solution: V, IV, I, III, II
(V: 6 nM, IV: 9 nM, I: 20 nM, III: 30 nM, II: 53 nM)

###

Target: Hexokinase-4 (Homo sapiens, UniProt P35557)
Sequence (P35557 whole entry): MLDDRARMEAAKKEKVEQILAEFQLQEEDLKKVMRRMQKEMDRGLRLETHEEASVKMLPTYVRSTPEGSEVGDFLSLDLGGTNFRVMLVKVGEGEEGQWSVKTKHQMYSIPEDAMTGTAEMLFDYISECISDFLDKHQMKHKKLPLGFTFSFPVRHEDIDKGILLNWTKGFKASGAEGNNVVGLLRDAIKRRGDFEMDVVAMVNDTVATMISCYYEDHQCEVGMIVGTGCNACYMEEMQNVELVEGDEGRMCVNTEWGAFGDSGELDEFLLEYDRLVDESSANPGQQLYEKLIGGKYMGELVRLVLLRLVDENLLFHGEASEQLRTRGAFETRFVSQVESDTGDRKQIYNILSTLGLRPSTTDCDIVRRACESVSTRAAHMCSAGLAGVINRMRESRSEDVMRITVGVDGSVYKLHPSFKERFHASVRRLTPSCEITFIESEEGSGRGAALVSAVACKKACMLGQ
Assay: Activation of recombinant human pancreatic glucokinase using 10 mM glucose as substrate by G6PDH coupled assay
pEC50: −log10 of the molar value.
measured_attribute: pEC50

Consider the reported pEC50 for these compounds:
COC[C@H](C)Oc1cc(C#Cc2ccc(N)cc2)cc(C(=O)Nc2ccn(C)n2)c1	7.47
COC[C@H](C)Oc1cc(C#CCOC2CCCCO2)cc(C(=O)Nc2ccn(C)n2)c1 (stereo not given in full)	8.22

1: COC[C@H](C)Oc1cc(C#Cc2cccc(N)c2)cc(C(=O)Nc2ccn(C)n2)c1
2: COC[C@H](C)Oc1cc(C#Cc2cccc(NCCN3CCCC3)c2)cc(C(=O)Nc2ccn(C)n2)c1
3: COC[C@H](C)Oc1cc(C#CCNc2ncccn2)cc(C(=O)Nc2ccn(C)n2)c1
Problem: Sort the compounds on pEC50; start with the lowest figure. Order the labels as requested and list them.
Solution: 3, 1, 2
(3: 6.52, 1: 7.57, 2: 8.22)

###

Assay: Clearance in ICR mouse at 3 mg/kg, iv and 10 mg/kg, po
Assay type: ADME, organism-based
Details: in vivo
measured_attribute: clearance (mL/min/kg)
Return type: number; implicit unit mL/min/kg.

Problem: For the compound COC[C@H](C)Oc1cc(C#Cc2cccc(N)c2)cc(C(=O)Nc2ccn(C)n2)c1 , what clearance is on record?
Solution: 43.2

###

Test: Apparent permeability of the compound by PAMPA
Assay type: physicochemical
measured_attribute: Papp (×10⁻⁶ cm/s)
Return type: number; implicit unit ×10⁻⁶ cm/s.

Problem: For the compound COC[C@H](C)Oc1cc(C#Cc2cccc(N)c2)cc(C(=O)Nc2ccn(C)n2)c1 , what Papp is on record?
Solution: 3.43

###

Molecular target: Hexokinase-4 (Homo sapiens)
Test: Activation of recombinant human pancreatic glucokinase using 10 mM glucose as substrate by G6PDH coupled assay
measured_attribute: EC50 (nM)

Consider the reported EC50 for these compounds:
COC[C@H](C)Oc1cc(C#Cc2ccc3[nH]ccc3c2)cc(C(=O)Nc2ccn(C)n2)c1	12
COC[C@H](C)Oc1cc(C#Cc2cccc(OCC#N)c2)cc(C(=O)Nc2ccn(C)n2)c1	46
COC[C@H](C)Oc1cc(C#Cc2cccc(NCCN3CCCCC3)c2)cc(C(=O)Nc2ccn(C)n2)c1	6

1: COC[C@H](C)Oc1cc(C#Cc2cccc(O)c2)cc(C(=O)Nc2ccn(C)n2)c1
2: COC[C@H](C)Oc1cc(C#CCN(C)C)cc(C(=O)Nc2ccn(C)n2)c1
3: COC[C@H](C)Oc1cc(C#Cc2cccc(OCCN3CCCC3)c2)cc(C(=O)Nc2ccn(C)n2)c1
4: CCN(CC)c1cccc(C#Cc2cc(O[C@@H](C)COC)cc(C(=O)Nc3ccn(C)n3)c2)c1
Problem: Output the entries ranked by EC50 from maximum down to minimum. Order the labels as requested and list them.
Solution: 2, 4, 1, 3

###

Test: Volume of distribution at steady state in ICR mouse at 3 mg/kg, iv and 10 mg/kg, po
Assay type: ADME, organism-based
Settings: in vivo, read-out: Vdss
measured_attribute: Vd (L/kg)
Return type: number; implicit unit L/kg.

Problem: For the compound COC[C@H](C)Oc1cc(C#Cc2cccc(N)c2)cc(C(=O)Nc2ccn(C)n2)c1 , what Vd is on record?
Solution: 1.44
